Collected IC50 values appear next to each entry.
Target: FGFR2 (h) (Homo sapiens)
Sequence (P21802 22-821): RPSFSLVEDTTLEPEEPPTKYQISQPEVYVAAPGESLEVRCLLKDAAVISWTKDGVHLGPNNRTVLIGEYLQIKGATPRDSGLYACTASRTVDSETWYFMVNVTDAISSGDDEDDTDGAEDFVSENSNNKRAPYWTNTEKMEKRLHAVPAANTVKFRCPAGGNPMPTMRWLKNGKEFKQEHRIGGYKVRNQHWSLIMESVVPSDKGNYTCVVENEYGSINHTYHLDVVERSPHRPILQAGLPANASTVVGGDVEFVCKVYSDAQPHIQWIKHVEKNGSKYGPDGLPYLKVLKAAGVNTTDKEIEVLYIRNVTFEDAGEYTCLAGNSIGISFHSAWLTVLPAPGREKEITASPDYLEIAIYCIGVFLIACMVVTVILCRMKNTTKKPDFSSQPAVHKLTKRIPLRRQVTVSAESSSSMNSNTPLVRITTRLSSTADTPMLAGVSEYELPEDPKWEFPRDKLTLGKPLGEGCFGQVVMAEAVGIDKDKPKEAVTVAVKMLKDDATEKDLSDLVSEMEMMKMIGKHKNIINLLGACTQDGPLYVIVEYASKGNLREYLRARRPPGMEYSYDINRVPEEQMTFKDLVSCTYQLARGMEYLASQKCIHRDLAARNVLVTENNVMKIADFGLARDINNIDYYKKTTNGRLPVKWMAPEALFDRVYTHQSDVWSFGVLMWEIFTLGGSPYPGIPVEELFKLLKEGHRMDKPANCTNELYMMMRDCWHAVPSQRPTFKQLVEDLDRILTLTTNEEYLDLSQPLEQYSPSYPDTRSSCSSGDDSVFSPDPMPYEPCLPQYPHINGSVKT
Test: FGFR2 (enzymatic assay), TR-FRET
Assay type: biochemical
Settings: read-out: FGFR 2 pIC50 (converted)
Note: unit µM is implicit; provide only the numeric part.

The compound listed as CNCCN(c1cc(OC)cc(OC)c1)c1ccc2ncc(-c3ccc(NC(=O)OC(C)(C)C)nc3)nc2c1 [Compound 81] has a reported IC50 of 0.0055

Memo: COc1cc(OC)cc(N(CCCNCC(F)(F)F)c2ccc3ncc(-c4ccnc(C(=O)NCCCN)c4)nc3c2)c1 [Compound 148] , reported IC50: 0.0589

Entry under test: COc1cc(OC)cc(N(CCO)c2ccc3ncc(-c4ccc(N5CCN(C(=O)OC(C)(C)C)CC5)cc4)nc3c2)c1 [Compound 156] . Its IC50 was 0.0955
